# test-system: human recombinant Btk (Homo sapiens (Human), UniProt Q06187)
# Sequence (Q06187 whole entry): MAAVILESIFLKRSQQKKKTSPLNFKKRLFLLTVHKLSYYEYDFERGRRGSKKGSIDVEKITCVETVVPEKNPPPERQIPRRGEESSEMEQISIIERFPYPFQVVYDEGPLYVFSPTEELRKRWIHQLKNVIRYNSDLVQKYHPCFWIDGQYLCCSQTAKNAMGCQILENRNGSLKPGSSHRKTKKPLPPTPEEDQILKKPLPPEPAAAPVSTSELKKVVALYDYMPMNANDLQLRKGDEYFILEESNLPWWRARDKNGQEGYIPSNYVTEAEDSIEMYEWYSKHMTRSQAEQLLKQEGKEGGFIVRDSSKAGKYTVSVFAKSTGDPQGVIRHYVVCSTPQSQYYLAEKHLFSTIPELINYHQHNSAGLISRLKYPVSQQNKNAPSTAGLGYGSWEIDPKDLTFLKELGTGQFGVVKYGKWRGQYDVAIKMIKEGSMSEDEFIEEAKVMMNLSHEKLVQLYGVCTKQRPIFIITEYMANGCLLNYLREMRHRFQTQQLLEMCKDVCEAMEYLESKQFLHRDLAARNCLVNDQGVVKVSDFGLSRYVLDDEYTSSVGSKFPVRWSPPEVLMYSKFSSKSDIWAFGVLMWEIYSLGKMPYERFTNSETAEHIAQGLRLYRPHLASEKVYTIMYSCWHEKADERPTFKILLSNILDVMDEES
# assay-comment: Human Recombinant Btk Enzyme Assay
# test-parameters: human recombinant Btk 1 nM, ATP 20 μM
readout-kind: IC50 (nM)

Here is how some compounds turned out for IC50.
{"columns": ["compound", "reading"],
 "data": [
  ["Cc1c(-c2ccc(C(N)=O)c3[nH]c4cc(C(C)(C)O)ccc4c23)cccc1-n1c(=O)cc2c(F)cccn2c1=O [Example 21]", 0.93],
  ["Cc1c(-c2ccc(C(N)=O)c3[nH]c4cc(C(C)(C)O)ccc4c23)cccc1-n1c(=O)[nH]c2c(F)cccc2c1=O (single isomer, unassigned) [Example 2]", 2.4],
  ["COc1cccc2c(=O)n(-c3cccc(-c4ccc(C(N)=O)c5[nH]c6cc(C(C)(C)O)ccc6c45)c3C)c(=O)n(C)c12", 1.7]
]}

[A] Cc1c(-c2ccc(C(N)=O)c3[nH]c4cc(C(C)(C)O)ccc4c23)cccc1-n1c(=O)cc2c(F)cccn2c1=O [Example 22]
[B] Cc1c(-c2ccc(C(N)=O)c3[nH]c4cc(C(C)(C)O)ccc4c23)cccc1-n1c(=O)cc2c(Cl)cccn2c1=O [Example 13]
input: Returns: the argument ( A or B ) having the larger IC50. Answer format: the label of the selected item.
output: A
(A: 1.7 nM, B: 0.94 nM)

* * *

pIC50: −log10 of the molar value.
Hi! I'm sharing some pIC50 results obtained with Jak2 tyrosine kinase (Homo sapiens (Human)).
Sequence (O60674 whole entry): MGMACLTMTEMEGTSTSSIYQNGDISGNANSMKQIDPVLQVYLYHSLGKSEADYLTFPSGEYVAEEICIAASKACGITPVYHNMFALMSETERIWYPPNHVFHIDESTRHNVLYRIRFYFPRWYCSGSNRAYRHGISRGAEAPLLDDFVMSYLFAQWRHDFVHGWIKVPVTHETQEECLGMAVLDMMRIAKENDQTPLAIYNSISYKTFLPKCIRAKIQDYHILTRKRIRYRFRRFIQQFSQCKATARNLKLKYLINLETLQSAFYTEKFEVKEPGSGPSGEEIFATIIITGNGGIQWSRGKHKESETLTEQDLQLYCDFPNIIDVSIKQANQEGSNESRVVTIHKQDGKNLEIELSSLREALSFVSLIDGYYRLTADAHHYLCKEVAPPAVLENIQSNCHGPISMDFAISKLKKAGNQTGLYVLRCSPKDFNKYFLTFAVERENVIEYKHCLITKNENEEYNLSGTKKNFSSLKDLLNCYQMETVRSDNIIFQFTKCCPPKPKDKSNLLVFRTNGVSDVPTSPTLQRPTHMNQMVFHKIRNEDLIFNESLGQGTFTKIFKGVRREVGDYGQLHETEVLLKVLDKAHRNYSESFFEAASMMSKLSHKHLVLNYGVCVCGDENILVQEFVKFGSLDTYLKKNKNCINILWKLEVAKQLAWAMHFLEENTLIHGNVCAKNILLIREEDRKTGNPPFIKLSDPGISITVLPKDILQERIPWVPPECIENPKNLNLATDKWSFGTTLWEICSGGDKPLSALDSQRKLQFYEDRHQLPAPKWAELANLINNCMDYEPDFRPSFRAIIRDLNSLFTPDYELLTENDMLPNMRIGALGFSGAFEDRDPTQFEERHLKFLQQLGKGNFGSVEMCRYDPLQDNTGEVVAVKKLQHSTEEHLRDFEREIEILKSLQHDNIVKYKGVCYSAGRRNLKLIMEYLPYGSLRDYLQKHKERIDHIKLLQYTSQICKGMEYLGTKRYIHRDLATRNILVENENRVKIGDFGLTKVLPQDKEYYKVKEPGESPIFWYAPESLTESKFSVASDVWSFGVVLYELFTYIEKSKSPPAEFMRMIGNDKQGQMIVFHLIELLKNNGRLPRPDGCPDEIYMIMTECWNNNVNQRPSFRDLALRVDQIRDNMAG
readout-kind: pIC50

Here is how some molecules turned out for pIC50.
{"columns": ["molecule", "pIC50"],
 "data": [
  ["Cc1c(-c2ccc(C(N)=O)c3[nH]c4cc(C(C)(C)O)ccc4c23)cccc1-n1c(=O)ccn(-c2ccc(F)cc2)c1=O", 6.00],
  ["COc1cccn2c(=O)n(-c3cccc(-c4ccc(C(N)=O)c5[nH]c6cc(C(C)(C)O)ccc6c45)c3C)c(=O)cc12", 6.01],
  ["COCc1ccc2c(c1)[nH]c1c(C(N)=O)ccc(-c3cccc(-n4c(=O)cc5c(Cl)cccn5c4=O)c3C)c12", 5.72],
  ["Cc1c(-c2ccc(C(N)=O)c3[nH]c4cc(C(C)(C)O)ccc4c23)cccc1-n1c(=O)c(F)c2ccccn2c1=O", 5.72]
]}

[a] Cc1c(-c2ccc(C(N)=O)c3[nH]c4c(F)c(C(C)(C)O)ccc4c23)cccc1-n1c(=O)c2cccc(F)c2n(C)c1=O
[b] CC(=O)NCc1ccc2c(c1)[nH]c1c(C(N)=O)ccc(-c3cccc(-n4c(=O)cc5c(F)cccn5c4=O)c3C)c12
[c] COc1ccc2cc(=O)n(-c3cccc(-c4ccc(C(N)=O)c5[nH]c6cc(C(C)(C)O)ccc6c45)c3C)c(=O)n2c1
[d] Cn1c(=O)n(-c2cccc(-c3ccc(C(N)=O)c4[nH]c5cc(C(C)(C)O)ccc5c34)c2Cl)c(=O)c2ccccc21
input: With regard to pIC50, arrange the entries in ascending order, please. Answer by listing the labels in the requested order.
output: d, c, b, a

[P] COc1ccn2c(=O)n(-c3cccc(-c4ccc(C(N)=O)c5[nH]c6cc(C(C)(C)O)ccc6c45)c3C)c(=O)cc2c1
[Q] Cc1c(-c2ccc(C(N)=O)c3[nH]c4cc(C(C)(C)O)ccc4c23)cccc1-n1c(=O)c2cc(F)ccc2n(C)c1=O
input: Returns: the argument ( P or Q ) having the larger pIC50. Answer format: the label of the selected item.
output: P
(P: 6.00, Q: 5.66)

* * *

# Tested on: CD69 expression on B cells in human whole blood
# assay-comment: Whole Blood Assays of BCR-Stimulated CD69 Expression on B Cells
# Format: cell-based
# test-parameters: B-cell, anti-human IgM + IL-4 stimulation, 18 h at 37° C.
readout-kind: IC50 (nM)

{"columns": ["compound", "IC50, nM"],
 "data": [
  ["Cc1c(-c2ccc(C(N)=O)c3[nH]c4c(C)c(C(C)(C)O)ccc4c23)cccc1-n1c(=O)c2cccc(F)c2n(C)c1=O (atropisomer, axis not shown)", 200],
  ["CC(=O)NCc1ccc2c(c1)[nH]c1c(C(N)=O)ccc(-c3cccc(-n4c(=O)cc5c(F)cccn5c4=O)c3C)c12", 130],
  ["Cc1c(-c2ccc(C(N)=O)c3[nH]c4c(F)c(C(C)(C)O)ccc4c23)cccc1-n1c(=O)c2cccc(F)c2n(C)c1=O", 250],
  ["Cn1c(=O)n(-c2cccc(-c3ccc(C(N)=O)c4[nH]c5cc(C(C)(C)O)ccc5c34)c2Cl)c(=O)c2cccc(F)c21", 180],
  ["Cc1c(-c2ccc(C(N)=O)c3[nH]c4cc(C(C)(C)O)ccc4c23)cccc1-n1c(=O)cc2sccn2c1=O", 130],
  ["Cc1c(-c2ccc(C(N)=O)c3[nH]c4cc(C(C)(C)O)ccc4c23)cccc1-n1c(=O)c2cc(F)ccc2n(C)c1=O", 160]
]}

[P] Cc1c(-c2ccc(C(N)=O)c3[nH]c4cc(C(C)(C)O)cc(C)c4c23)cccc1-n1c(=O)c2cccc(F)c2n(C)c1=O (single isomer, unassigned)
[Q] COc1cccn2c(=O)n(-c3cccc(-c4ccc(C(N)=O)c5[nH]c6cc(C(C)(C)O)ccc6c45)c3C)c(=O)cc12
[R] COc1cccc2c(=O)n(-c3cccc(-c4ccc(C(N)=O)c5[nH]c6cc(C(C)(C)O)ccc6c45)c3C)c(=O)n(C)c12
input: With regard to IC50, arrange the entries in ascending order, please. Answer by listing the labels in the requested order.
output: P, Q, R
(P: 69 nM, Q: 140 nM, R: 220 nM)

[A] Cc1c(-c2ccc(C(N)=O)c3[nH]c4cc(C(C)(C)O)ccc4c23)cccc1-n1c(=O)c(F)c2ccccn2c1=O
[B] Cc1c(-c2ccc(C(N)=O)c3[nH]c4cc(N(C)C)ccc4c23)cccc1-n1c(=O)cc2c(F)cccn2c1=O
input: Could you tell me which of these two has the smaller IC50 figure? First: A Second: B Answer format: the label of the selected item.
output: B
(B: 56 nM, A: 140 nM)

* * *

# test-system: human recombinant Btk (Homo sapiens (Human), UniProt Q06187)
# assay-comment: Human Recombinant Btk Enzyme Assay
# test-parameters: human recombinant Btk 1 nM, ATP 20 μM
pIC50: −log10 of the molar value.
readout-kind: pIC50

Here is how some molecules turned out for pIC50.
{"columns": ["molecule", "test-system", "pIC50"],
 "data": [
  ["Cc1c(-c2ccc(C(N)=O)c3[nH]c4cc(C(C)(C)O)ccc4c23)cccc1-n1c(=O)cc2c(Cl)cccn2c1=O (atropisomer, axis not shown) [Example 15]", "human recombinant Btk (Homo sapiens (Human), UniProt Q06187)", 9.39],
  ["Cc1c(-c2ccc(C(N)=O)c3[nH]c4cc(CO)ccc4c23)cccc1-n1c(=O)cc2c(F)cccn2c1=O", "human recombinant Btk (Homo sapiens (Human), UniProt Q06187)", 8.82]
]}

[A] COc1cccn2c(=O)n(-c3cccc(-c4ccc(C(N)=O)c5[nH]c6cc(C(C)(C)O)ccc6c45)c3C)c(=O)cc12
[B] Cc1c(-c2ccc(C(N)=O)c3[nH]c4cc(NC(=O)C(C)(C)C)ccc4c23)cccc1-n1c(=O)cc2c(Cl)cccn2c1=O
[C] Cn1c(=O)n(-c2cccc(-c3ccc(C(N)=O)c4[nH]c5cc(C(C)(C)O)ccc5c34)c2Cl)c(=O)c2ccccc21
input: Order the 3 molecules from highest to lowest pIC50. Answer by listing the labels in the requested order.
output: A, B, C
(A: 9.28, B: 8.68, C: 8.28)

* * *

# test-system: UniProtKB O60674
# assay-comment: Jak2 Tyrosine Kinase Assay
# Type: biochemical
# test-parameters: selectivity for Btk over Jak2; larger value = more selective for Btk
readout-kind: Ratio of Jak2/Btk IC50 values

Here is how some compounds turned out for Ratio of Jak2/Btk IC50 values.
{"columns": ["compound", "Ratio of Jak2/Btk IC50 values"],
 "data": [
  ["Cc1c(-c2ccc(C(N)=O)c3[nH]c4cc(NC(=O)C(C)(C)C)ccc4c23)cccc1-n1c(=O)cc2c(Cl)cccn2c1=O", 1000],
  ["Cn1c(=O)n(-c2cccc(-c3ccc(C(N)=O)c4[nH]c5cc(C(C)(C)O)ccc5c34)c2Cl)c(=O)c2cccc(F)c21", 1300],
  ["Cc1c(-c2ccc(C(N)=O)c3[nH]c4cc(C(C)(C)O)ccc4c23)cccc1-n1c(=O)cc2c(Cl)cccn2c1=O [Example 13]", 1400],
  ["COCc1ccc2c(c1)[nH]c1c(C(N)=O)ccc(-c3cccc(-n4c(=O)cc5c(Cl)cccn5c4=O)c3C)c12", 1100],
  ["Cc1c(-c2ccc(C(N)=O)c3[nH]c4cc(C(C)(C)O)ccc4c23)cccc1-n1c(=O)ccn(-c2ccc(F)cc2)c1=O", 450]
]}

[I] Cc1c(-c2ccc(C(N)=O)c3[nH]c4c(F)c(C(C)(C)O)ccc4c23)cccc1-n1c(=O)c2cccc(F)c2n(C)c1=O
[II] Cc1c(-c2ccc(C(N)=O)c3[nH]c4cc(C(C)(C)O)ccc4c23)cccc1-n1c(=O)c(F)c2ccccn2c1=O
[III] Cn1c(=O)n(-c2cccc(-c3ccc(C(N)=O)c4[nH]c5cc(C(C)(C)O)ccc5c34)c2Cl)c(=O)c2ccccc21
[IV] COc1cccn2c(=O)n(-c3cccc(-c4ccc(C(N)=O)c5[nH]c6cc(C(C)(C)O)ccc6c45)c3C)c(=O)cc12
[V] Cc1c(-c2ccc(C(N)=O)c3[nH]c4cc(C(C)(C)O)ccc4c23)cccc1-n1c(=O)[nH]c2c(F)cccc2c1=O (single isomer, unassigned) [Example 1]
input: With regard to Ratio of Jak2/Btk IC50 values, arrange the entries in ascending order, please. Answer by listing the labels in the requested order.
output: III, I, V, II, IV
